target: antiserum As #41 (sheep polyclonal, raised to the alpha subunit of human inhibin); assay: RIA, competition with iodinated inhibin
Where no end group is shown, it is not given here. The star is where a group is joined. Biotin = O=C1N[C@H]2[C@H](CS[C@H]2CCCCC(=O)*)N1
readout: ED50 (nM)
Just the number please, in nM, no unit attached.

Problem: Consider the binder Biotin-SGSGDGGYSFKYETVPNL [biotinylated peptide #31 (Set 1) of the human (alpha)C subunit] and give its measured ED50.
Solution: 2400

Problem: Consider the binder Biotin-SGSGPLHVRTTSDGGYSF [biotinylated peptide #29 (Set 1) of the human (alpha)C subunit] and give its measured ED50.
Solution: 5000

Problem: Consider the binder Biotin-SGSGAALPGTMRPLHVRT [biotinylated peptide #27 (Set 1) of the human (alpha)C subunit] and give its measured ED50.
Solution: 5000

Problem: Consider the binder Biotin-SGSGPNLSLPVPGAPPTP [biotinylated peptide #20 (Set 1) of the human (alpha)C subunit] and give its measured ED50.
Solution: 3600

Problem: Consider the binder Biotin-SGSGGAPPTPAQPYSLLP [biotinylated peptide #22 (Set 1) of the human (alpha)C subunit] and give its measured ED50.
Solution: 5000

Problem: Consider the binder Biotin-SGSGQPCCAALPGTMRPL (cysteine pairing not given here) [biotinylated peptide #26 (Set 1) of the human (alpha)C subunit] and give its measured ED50.
Solution: 1000

Problem: Consider the binder Biotin-SGSGMSWPWSPSALRLLQ [biotinylated peptide #4 (Set 1) of the human (alpha)C subunit] and give its measured ED50.
Solution: 1300

Problem: Consider the binder Biotin-SGSGSFKYETVPNLLTQH [biotinylated peptide #32 (Set 1) of the human (alpha)C subunit] and give its measured ED50.
Solution: 290

Problem: Consider the binder Biotin-SGSGLQRPPEEPAAHANC [biotinylated peptide #7 (Set 1) of the human (alpha)C subunit] and give its measured ED50.
Solution: 1250

Problem: Consider the binder Biotin-SGSGGTMRPLHVRTTSDG [biotinylated peptide #28 (Set 1) of the human (alpha)C subunit] and give its measured ED50.
Solution: 4000

Problem: Consider the binder Biotin-SGSGLHIPPNLSLPVPGA [biotinylated peptide #19 (Set 1) of the human (alpha)C subunit] and give its measured ED50.
Solution: 2100

Problem: Consider the binder Biotin-SGSGHYCHGGCGLHIPPN (cysteine pairing not given here) [biotinylated peptide #17 (Set 1) of the human (alpha)C subunit] and give its measured ED50.
Solution: 1050

Problem: Consider the binder Biotin-SGSGLPGAQPCCAALPGT (cysteine pairing not given here) [biotinylated peptide #25 (Set 1) of the human (alpha)C subunit] and give its measured ED50.
Solution: 5000

Reference for the values: patent US20030162229A1
